TGT: MDM2 (Homo sapiens, UniProt Q00987)
Sequence (Q00987 whole entry): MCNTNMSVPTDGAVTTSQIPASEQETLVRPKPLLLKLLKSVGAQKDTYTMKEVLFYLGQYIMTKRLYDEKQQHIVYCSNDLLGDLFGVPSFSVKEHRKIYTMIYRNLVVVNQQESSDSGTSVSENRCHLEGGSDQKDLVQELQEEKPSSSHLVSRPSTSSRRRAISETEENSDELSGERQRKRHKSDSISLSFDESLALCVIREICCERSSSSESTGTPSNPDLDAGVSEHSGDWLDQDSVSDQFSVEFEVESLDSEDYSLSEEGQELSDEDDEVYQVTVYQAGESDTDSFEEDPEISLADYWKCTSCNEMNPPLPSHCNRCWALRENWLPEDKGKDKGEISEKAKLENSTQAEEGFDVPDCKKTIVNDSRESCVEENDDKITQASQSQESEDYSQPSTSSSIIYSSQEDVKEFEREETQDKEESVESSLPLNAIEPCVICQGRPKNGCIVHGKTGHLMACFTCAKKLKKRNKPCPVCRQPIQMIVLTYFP
PROTOCOL: MDM2 binding screen of Libraries 3 and 4: displacement of fluorescent probe F-M8 at 750 nM macrocycle
EXPERIMENTAL_SETUP: Panel b, Library 3: 63 scaffolds combinatorially acylated with 15 carboxylic acids at 30 picomole scale; displacement of fluorescent peptide probe; macrocycle 750 nM
Overview of reported fraction of fluorescent probe displaced across a group of compounds:

The examples below pair each entry with its known result.
{"COMPOUND": "O=C(/C=C/c1ccc(Cl)cc1)NCCN1CC(=O)N[C@H](Cc2c[nH]c3ccccc23)C(=O)NCCSSCCC(=O)N2CCO[C@@H](C2)C1=O", "QUANTITY_NAME": "fraction of fluorescent probe displaced", "OBSERVED_RESULT": 0.015}
{"COMPOUND": "CC(Oc1cccc(Cl)c1)C(=O)NCC1NC(=O)C2(CC2)CNC(=O)CCSSCCNC(=O)C(Cc2c[nH]c3ccccc23)NC1=O (mixture of isomers) [X-Amcp-Dap-Trp + Acid 113]", "QUANTITY_NAME": "fraction of fluorescent probe displaced", "OBSERVED_RESULT": 0.00133}

From here, focus on the item given below.
Kindly note the recorded fraction of fluorescent probe displaced for O=C(CCS(=O)(=O)c1ccccc1)NC[C@@H]1NC(=O)[C@@H]2CN(CCO2)C(=O)CCSSCCNC(=O)[C@@H](Cc2c[nH]c3ccccc23)NC1=O , which is 0.021

###

TGT: MDM2 (Homo sapiens)
PROTOCOL: MDM2 binding screen of Libraries 3 and 4: displacement of fluorescent probe F-M8 at 750 nM macrocycle
EXPERIMENTAL_SETUP: Panel b, Library 3: 63 scaffolds combinatorially acylated with 15 carboxylic acids at 30 picomole scale; displacement of fluorescent peptide probe; macrocycle 750 nM
Protocol: The cyclic peptide scaffolds required for Libraries 3 and 4 were synthesized as described for those used in Library 2. Due to the presence of many N-methylated amino acids which are more difficult to couple, 200 mM HOAt was applied together with HATU. The scaffolds were diluted to 2 mM in DMSO, and 15 nL were transferred using acoustic dispensing, followed by 15 nL DMSO containing carboxylic acids (40 mM, 20 equiv.), HBTU (40 mM) and DABCO (40 mM). […]
Reported fraction of fluorescent probe displaced by item:
Respond with the number and no other words.

# example entries with known answers
{"MOLECULE": "O=C(/C=C/c1ccc2ccccc2c1)NCCN1CC(=O)N[C@@H](Cc2cccc3ccccc23)C(=O)NCCSSCCC(=O)NCC2(CC2)C1=O", "fraction of fluorescent probe displaced": 0.008}
{"MOLECULE": "CN1C(=O)[C@@H](CNC(=O)c2ccc3ccccc3c2)NC(=O)[C@H]2CCCN(C2)C(=O)CCSSCCNC(=O)[C@@H]1Cc1c[nH]c2ccccc12", "fraction of fluorescent probe displaced": 0.031}
{"MOLECULE": "Cn1cc(C[C@@H]2NC(=O)[C@H](CNC(=O)c3ccc(Cl)s3)NC(=O)C3(CC3)CNC(=O)CCSSCCNC2=O)c2ccccc21", "fraction of fluorescent probe displaced": 0.008}
{"MOLECULE": "Cn1cc(C[C@@H]2NC(=O)CN(CCNC(=O)c3ccc4ccccc4c3)C(=O)[C@@H]3CN(CCO3)C(=O)CCSSCCNC2=O)c2ccccc21", "fraction of fluorescent probe displaced": 0.00455}
{"MOLECULE": "O=C(C=Cc1ccncc1)NCC1NC(=O)C2CN(CCO2)C(=O)CCSSCCNC(=O)C(Cc2c[nH]c3cc(Cl)ccc23)NC1=O (stereo not shown)", "fraction of fluorescent probe displaced": 0.284}

fraction of fluorescent probe displaced reading for O=C(/C=C/c1ccc(Cl)cc1)NC[C@H]1NC(=O)C2(CC2)CNC(=O)CCSSCCNC(=O)[C@H](Cc2ccc3ccccc3c2)NC1=O : 0.008

fraction of fluorescent probe displaced in this record for Cn1cc(C[C@@H]2NC(=O)[C@H](CNC(=O)c3ccc4ccccc4c3)NC(=O)[C@H]3CCCN(C3)C(=O)CCSSCCNC2=O)c2ccccc21 : 0.076

###

TGT: MDM2 (Homo sapiens, UniProt Q00987)
PROTOCOL: MDM2 binding screen: displacement of fluorescent p53 peptide probe FP53 (fluorescence polarization)
EXPERIMENTAL_SETUP: Acid 14; replicate; crude macrocycle reactions
Numbered stars: 1 amine (or outer) side, 2 acyl side, 3 side chain; on linkers, the order of the positions; unused ones are H or OH. Bridge positions count the residues as written; N and C are the ends. Square brackets hold non-standard residues; d marks the D form. Peptide text beside a SMILES is read from it. * marks the point of attachment. 2Thenoyl(5-Cl) = O=C(c1ccc(Cl)s1)*; Cysteamide = C(CS[*:3])N[*:1]; Api = NC1(C(=O)O)CCNCC1; Mpa = O=C(O)CCS
QUANTITY_NAME: fraction fluorescent probe displaced, Replicate
Please reply with the number alone, leaving off any unit.

{"COMPOUND": "O=C1CCNC(=O)[C@H](Cc2c[nH]c3ccccc23)NC(=O)[C@H](CNC(=O)c2ccc(Cl)s2)NC(=O)CCSSCCN1", "OBSERVED_RESULT": 0.20}
{"COMPOUND": "O=C1CCSSCCNC(=O)[C@H](Cc2ccccc2)NC(=O)[C@H](CNC(=O)c2ccc(Cl)s2)NC(=O)CCN1", "OBSERVED_RESULT": 0.0465}

Shifting focus to the compound that follows.
Field fraction fluorescent probe displaced, Replicate (MDM2 (Homo sapiens, UniProt Q00987)), entry O=C1CCSSCCNC(=O)[C@@H]2CCCN2C(=O)[C@H](Cc2ccccc2)NC(=O)C2(CCN(C(=O)c3ccc(Cl)s3)CC2)N1 [X D6 F B1 Acid 14] ([Mpa][Api](2Thenoyl(5-Cl))FP-Cysteamide; disulfide 1-C) : 0.07

###

TGT: thrombin (Homo sapiens)
Construct: consists of two polypeptide chains of 36 (light chain) and 259 amino acid
PROTOCOL: Determination of Kis of purified thrombin inhibitors (IC50, Cheng-Prusoff)
Type: biochemical
EXPERIMENTAL_SETUP: thrombin; average of 3 replicates; read-out: IC50 (nM) Average
QUANTITY_NAME: IC50 (nM)
Give the value in nM but do not write nM after it.

As a guide, the following entries are already answered.
{"COMPOUND": "O=C1CCSSCCNC(=O)C(CNC(=O)c2ccc(Cl)s2)NC(=O)c2cccc(c2)CNC(=O)C(Cc2ccccc2)N1 (stereo not shown)", "TGT": "thrombin (Homo sapiens)", "UNITS_LABEL": "nM", "IC50": 214}
{"COMPOUND": "CC(C)[C@H]1NC(=O)CCSSCCNC(=O)[C@H](CNC(=O)c2ccc(Cl)s2)NC(=O)c2cccc(c2)CNC1=O", "TGT": "thrombin (Homo sapiens)", "UNITS_LABEL": "nM", "IC50": 58}
{"COMPOUND": "CC(C)C1NC(=O)CCSCSCCNC(=O)C(CNC(=O)c2ccc(Cl)s2)NC(=O)c2cccc(c2)CNC1=O (stereo not shown)", "TGT": "thrombin (Homo sapiens)", "UNITS_LABEL": "nM", "IC50": 108}

Now turn to the next compound.
The recorded IC50 for CC(C)[C@@H]1NC(=O)CCSSCCNC(=O)[C@H](CNC(=O)c2ccc(Cl)s2)NC(=O)c2cccc(c2)CNC1=O is 160

###

TGT: thrombin (Homo sapiens, UniProt P00734)
Construct: consists of two polypeptide chains of 36 (light chain) and 259 amino acid
PROTOCOL: Thrombin inhibition screen of crude macrocycle reactions (residual thrombin activity, fluorogenic substrate Z-Gly-Gly-Arg-AMC)
Type: biochemical
EXPERIMENTAL_SETUP: 10 µM macrocycle concentration; macrocycles containing acid 14; crude reaction; replicate reaction and screen
Numbered stars: 1 amine (or outer) side, 2 acyl side, 3 side chain; on linkers, the order of the positions; unused ones are H or OH. Bridge positions count the residues as written; N and C are the ends. Square brackets hold non-standard residues; d marks the D form. Peptide text beside a SMILES is read from it. * marks the point of attachment. 2Thenoyl(5-Cl) = O=C(c1ccc(Cl)s1)*; Cysteamide = C(CS[*:3])N[*:1]; Api = NC1(C(=O)O)CCNCC1; Orn = NCCC[CH](N)C(=O)O; Mpa = O=C(O)CCS
Below, each entry is listed alongside its reported % thrombin activity, Repeat screen.
Give just the numeric value; % need not be written.

{"COMPOUND": "NC(=O)CC[C@@H]1NC(=O)C2(CCN(C(=O)c3ccc(Cl)s3)CC2)NC(=O)[C@@H]2CCCN2C(=O)CCSSCCNC1=O [X B1 D6 Q] ([Mpa]P[Api](2Thenoyl(5-Cl))Q-Cysteamide; disulfide 1-C)", "OBSERVED_RESULT": 93.5}
{"COMPOUND": "CC1NC(=O)CCSSCCNC(=O)C(CCCCNC(=O)c2ccc(Cl)s2)NC(=O)C2CCCN2C1=O (centres unmarked) [X a B1 D1] ([Mpa]APK(2Thenoyl(5-Cl))-Cysteamide; disulfide 1-C; configuration not given here)", "OBSERVED_RESULT": 115.5}
{"COMPOUND": "O=C1CCSSCCNC(=O)C2CCCN2C(=O)C(CCCNC(=O)c2ccc(Cl)s2)NC(=O)C(Cc2c[nH]cn2)N1 (centres unmarked) [X H D2 B1] ([Mpa]H[Orn](2Thenoyl(5-Cl))P-Cysteamide; disulfide 1-C; configuration not given here)", "OBSERVED_RESULT": 95.8}
{"COMPOUND": "O=C1CCSSCCNC(=O)[C@H]2CCCN(C2)C(=O)C2(CCN(C(=O)c3ccc(Cl)s3)CC2)NC(=O)[C@@H](CO)N1", "OBSERVED_RESULT": 97.7}

Query compound follows.
Value of % thrombin activity, Repeat screen reported for the compound CC(C)CC1NC(=O)C2CC(NC(=O)c3ccc(Cl)s3)CN2C(=O)CCSSCCNC(=O)c2ccc(cc2)CNC1=O (centres unmarked) is 115.5

Taken from paper PMC9250534.
